Listed here: compounds with reported pIC50 for PIM1 (human).
Quick note: pIC50 values are minus log10 of concentrations in mol/L.

# query: pIC50 of entry NS(=O)(=O)c1ccc(-c2ccc(/C=C3\SC(=O)NC3=O)o2)cc1 6.67

Quick check: pIC50 of CC(=O)Nc1ccc(-c2ccc(/C=C3\SC(=N)NC3=O)o2)c(O)c1 ? 6.02

Look up pIC50: N=C1NC(=O)/C(=C/c2ccc(-c3ccc(C(=O)Nc4ccc(N5CCNCC5)cc4)cc3O)o2)S1 6.89

I have this compound here, O=C1NC(=S)S/C1=C\c1ccc(-c2cncc3ccccc23)o1 , and I need its recorded pIC50. 6.55

// lookup pIC50 for Cc1cn(-c2cc(NC(=O)c3cccc4cc(-c5ccc(/C=C6\SC(=N)NC6=O)o5)ccc34)cc(C(F)(F)F)c2)cn1 5.30

Which measured pIC50 value corresponds to CCN1CCN(Cc2cc(NC(=O)c3cccc4cc(-c5ccc(/C=C6\SC(=N)NC6=O)o5)ccc34)cc(C(F)(F)F)c2)CC1 ? 6.11

Which pIC50 is reported for this compound? N=C1NC(=O)/C(=C/c2ccc(-c3csc4ccccc34)o2)S1 5.49

* * *

- assayed_target: ERBB4 (human) (UniProt Q15303)
- Sequence (Q15303 whole entry, looked up): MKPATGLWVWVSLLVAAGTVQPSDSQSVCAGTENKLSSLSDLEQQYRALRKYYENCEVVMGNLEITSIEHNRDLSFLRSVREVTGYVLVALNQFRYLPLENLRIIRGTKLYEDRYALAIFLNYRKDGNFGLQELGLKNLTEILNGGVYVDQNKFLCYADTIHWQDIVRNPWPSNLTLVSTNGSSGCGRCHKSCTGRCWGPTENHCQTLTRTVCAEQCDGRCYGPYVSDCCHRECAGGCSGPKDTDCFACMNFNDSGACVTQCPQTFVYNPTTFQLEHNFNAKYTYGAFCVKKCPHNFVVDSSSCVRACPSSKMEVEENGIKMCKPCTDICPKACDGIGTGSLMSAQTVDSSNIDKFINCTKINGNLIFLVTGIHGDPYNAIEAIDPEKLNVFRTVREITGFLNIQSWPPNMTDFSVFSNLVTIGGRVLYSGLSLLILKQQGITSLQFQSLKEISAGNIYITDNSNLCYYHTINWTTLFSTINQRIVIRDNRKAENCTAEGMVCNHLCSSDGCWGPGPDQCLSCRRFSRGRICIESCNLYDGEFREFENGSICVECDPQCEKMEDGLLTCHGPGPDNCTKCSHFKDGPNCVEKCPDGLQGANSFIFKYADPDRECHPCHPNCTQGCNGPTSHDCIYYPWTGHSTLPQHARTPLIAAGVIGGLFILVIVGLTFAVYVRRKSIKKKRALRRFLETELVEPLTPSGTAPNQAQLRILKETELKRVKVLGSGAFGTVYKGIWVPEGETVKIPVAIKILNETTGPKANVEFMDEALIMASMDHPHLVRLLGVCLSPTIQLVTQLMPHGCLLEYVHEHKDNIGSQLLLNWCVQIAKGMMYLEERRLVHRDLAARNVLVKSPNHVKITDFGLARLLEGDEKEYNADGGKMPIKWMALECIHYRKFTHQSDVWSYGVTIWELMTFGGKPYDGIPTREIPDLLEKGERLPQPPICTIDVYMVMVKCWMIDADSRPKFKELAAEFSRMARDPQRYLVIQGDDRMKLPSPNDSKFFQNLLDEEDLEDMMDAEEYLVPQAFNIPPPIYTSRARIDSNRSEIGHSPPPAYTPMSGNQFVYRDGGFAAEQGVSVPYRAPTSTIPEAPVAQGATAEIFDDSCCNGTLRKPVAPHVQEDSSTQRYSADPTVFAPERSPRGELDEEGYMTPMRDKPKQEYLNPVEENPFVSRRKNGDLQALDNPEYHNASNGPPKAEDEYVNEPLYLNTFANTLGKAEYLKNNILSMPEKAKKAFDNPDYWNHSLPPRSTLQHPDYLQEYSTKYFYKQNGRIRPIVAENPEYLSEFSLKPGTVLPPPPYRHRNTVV
- procedure_details: KINOMEscan competition binding
- study_conditions: compound 10.0 µM
recorded_endpoint: kinase still bound, per cent of control (%)
Value expressed in %; do not type the unit.

Known results for compounds:
{"columns": ["chemical_smiles", "assayed_target", "kinase still bound, per cent of control [%]"],
 "data": [
  ["COc1cc(N2CCN(C)CC2)ccc1Nc1ncc2c(n1)N(C)c1ccccc1N(C)C2=O", "ERBB4 (human) (UniProt Q15303)", 88],
  ["COc1cc(N2CCC(O)CC2)ccc1Nc1ncc2c(n1)N1CCc3cccc(c31)C(=O)N2C", "ERBB4 (human) (UniProt Q15303)", 87],
  ["O=C1NC(=O)/C(=C/c2c[nH]c(=O)c(-c3ccc(N4CCNCC4)nc3)c2)S1", "ERBB4 (human) (UniProt Q15303)", 68],
  ["CN1C(=O)c2ccccc2N(C)c2nc(Nc3ccc(N4CCC(O)CC4)cc3)ncc21", "ERBB4 (human) (UniProt Q15303)", 100],
  ["COc1cc(N2CCN(C)CC2)ccc1Nc1ncc2c(n1)Nc1ccccc1NC2=O", "ERBB4 (human) (UniProt Q15303)", 62]
]}

Item: COc1cc(N2CCN(C)CC2)ccc1Nc1ncc2c(n1)N(C)c1sccc1C(=O)N2C Test system: ERBB4 (human) (UniProt Q15303) Read-out: kinase still bound, per cent of control Value: ? 88

Notebook: pull reported kinase still bound, per cent of control for ERBB4 (human) (UniProt Q15303), entry CN1C(=O)c2ccccc2N(C)c2nc(NS(=O)(=O)c3ccc(N)cc3)ncc21 100

Please state recorded kinase still bound, per cent of control (tested on ERBB4 (human) (UniProt Q15303)) of CN1CCN(c2ccc(C(=O)Nc3ncc4c(n3)N(C)c3ccccc3C(=O)N4C)cc2)CC1 100

* * *

- assayed_target: AURKA (human)
- procedure_details: KINOMEscan competition binding
- study_conditions: compound 10.0 µM
Output True for records whose kinase still bound, per cent of control is lower than 80%, False for records at or above 80%.

Solved cases below.
{"columns": ["chemical_smiles", "qualitative_label"],
 "data": [
  ["COc1cc(N2CCC(O)CC2)ccc1Nc1ncc2c(n1)N(C)c1ccccc1C(=O)N2C", "True"],
  ["CN1C(=O)c2ccccc2N(C)c2nc(Nc3ccc(N4CCC(O)CC4)cc3)ncc21", "True"],
  ["CN1CCN(c2ccc(C(=O)Nc3ncc4c(n3)N(C)c3ccccc3C(=O)N4C)cc2)CC1", "False"]
]}

We next turn to a different molecule, shown below.
hey, is kinase still bound, per cent of control for COc1cc(N2CCN(C)CC2)ccc1Nc1ncc2c(n1)N(C)c1ccccc1N(C)C2=O lower than 80% or not? True

* * *

- assayed_target: UniProt:O96017
- Sequence (O96017 whole entry, looked up): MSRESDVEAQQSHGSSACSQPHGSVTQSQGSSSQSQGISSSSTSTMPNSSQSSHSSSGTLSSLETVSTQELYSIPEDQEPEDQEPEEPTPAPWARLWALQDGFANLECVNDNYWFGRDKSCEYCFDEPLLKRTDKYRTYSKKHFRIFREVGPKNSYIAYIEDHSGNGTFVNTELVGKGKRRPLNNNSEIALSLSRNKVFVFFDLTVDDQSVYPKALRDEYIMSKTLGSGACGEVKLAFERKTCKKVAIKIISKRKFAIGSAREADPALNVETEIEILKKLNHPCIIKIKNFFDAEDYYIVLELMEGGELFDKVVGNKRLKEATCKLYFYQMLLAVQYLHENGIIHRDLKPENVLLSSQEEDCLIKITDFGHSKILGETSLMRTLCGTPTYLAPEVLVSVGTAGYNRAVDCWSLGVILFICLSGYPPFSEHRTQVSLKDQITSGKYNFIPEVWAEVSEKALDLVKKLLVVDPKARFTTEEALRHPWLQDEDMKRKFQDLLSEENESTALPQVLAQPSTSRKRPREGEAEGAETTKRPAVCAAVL
- procedure_details: KINOMEscan competition binding
- study_conditions: compound 10.0 µM
recorded_endpoint: kinase still bound, per cent of control (%)
Report the value in % with no unit label.

{"columns": ["chemical_smiles", "recorded_endpoint", "units_of_measure", "observed_result"],
 "data": [
  ["COc1cc(N2CCN(C)CC2)ccc1Nc1ncc2c(n1)Nc1ccccc1NC2=O", "kinase still bound, per cent of control", "%", 84],
  ["O=C1NC(=S)S/C1=C\\c1ccc(-c2cncc3ccccc23)o1", "kinase still bound, per cent of control", "%", 14],
  ["CN1C(=O)c2ccccc2N(C)c2nc(Nc3ccc(N4CCC(O)CC4)cc3)ncc21", "kinase still bound, per cent of control", "%", 81],
  ["CN1CCN(c2ccc(C(=O)Nc3ncc4c(n3)N(C)c3ccccc3C(=O)N4C)cc2)CC1", "kinase still bound, per cent of control", "%", 100],
  ["O=C1NC(=O)/C(=C/c2c[nH]c(=O)c(-c3ccc(N4CCNCC4)nc3)c2)S1", "kinase still bound, per cent of control", "%", 70]
]}

Form field: kinase still bound, per cent of control recorded for N=C1NC(=O)/C(=C/c2ccc(-c3cncc4ccccc34)o2)S1 with UniProt:O96017 (enter value) 33

What reported kinase still bound, per cent of control corresponds to COc1cc(N2CCN(C)CC2)ccc1Nc1ncc2c(n1)N(C)c1ccccc1C(=O)N2C on UniProt:O96017? 30

// fetch UniProt:O96017 kinase still bound, per cent of control for COc1cc(N2CCN(C)CC2)ccc1Nc1ncc2c(n1)N(C)c1sccc1C(=O)N2C 77

// map COc1cc(N2CCN(C)CC2)ccc1Nc1ncc2c(n1)N(C)c1ccccc1N(C)C2=O to recorded kinase still bound, per cent of control (system: UniProt:O96017) 97

Form field: kinase still bound, per cent of control recorded for CN1C(=O)c2ccccc2N(C)c2nc(NS(=O)(=O)c3ccc(N)cc3)ncc21 with UniProt:O96017 (enter value) 100

Missing value: kinase still bound, per cent of control, UniProt:O96017, entry COc1cc(N2CCC(O)CC2)ccc1Nc1ncc2c(n1)N1CCc3cccc(c31)C(=O)N2C . Fill in? 42

* * *

- assayed_target: MAP4K3 (human) (UniProt Q8IVH8)
- Sequence (Q8IVH8 whole entry, looked up): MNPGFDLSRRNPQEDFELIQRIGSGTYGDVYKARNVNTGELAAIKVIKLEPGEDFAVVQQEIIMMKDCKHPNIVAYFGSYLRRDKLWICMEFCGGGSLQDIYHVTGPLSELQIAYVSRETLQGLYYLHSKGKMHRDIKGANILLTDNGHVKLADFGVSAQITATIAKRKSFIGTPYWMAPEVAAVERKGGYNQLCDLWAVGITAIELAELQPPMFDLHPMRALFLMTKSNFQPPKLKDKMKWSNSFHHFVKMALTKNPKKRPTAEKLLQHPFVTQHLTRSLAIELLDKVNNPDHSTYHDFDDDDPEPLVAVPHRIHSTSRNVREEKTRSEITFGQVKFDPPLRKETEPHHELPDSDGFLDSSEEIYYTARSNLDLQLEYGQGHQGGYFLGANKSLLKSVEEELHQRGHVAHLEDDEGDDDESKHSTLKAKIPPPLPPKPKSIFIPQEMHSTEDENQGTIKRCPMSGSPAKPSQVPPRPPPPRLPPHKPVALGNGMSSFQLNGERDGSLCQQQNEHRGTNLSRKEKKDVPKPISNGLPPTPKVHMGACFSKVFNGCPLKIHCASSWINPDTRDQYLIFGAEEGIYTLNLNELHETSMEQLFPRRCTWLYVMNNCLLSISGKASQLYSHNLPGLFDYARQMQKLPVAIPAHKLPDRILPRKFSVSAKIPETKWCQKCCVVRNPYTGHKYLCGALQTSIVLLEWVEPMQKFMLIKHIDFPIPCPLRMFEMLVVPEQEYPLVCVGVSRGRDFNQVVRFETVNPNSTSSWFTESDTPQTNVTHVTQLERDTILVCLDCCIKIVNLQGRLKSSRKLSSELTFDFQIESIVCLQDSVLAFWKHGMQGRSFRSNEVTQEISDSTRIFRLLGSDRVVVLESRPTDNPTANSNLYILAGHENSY
- procedure_details: KINOMEscan competition binding
- study_conditions: compound 10.0 µM
// NB: equality with 80% counts as Not satisfied; only kinase still bound, per cent of control strictly below is Satisfied

{"columns": ["chemical_smiles", "qualitative_label"],
 "data": [
  ["CN1CCN(c2ccc(C(=O)Nc3ncc4c(n3)N(C)c3ccccc3C(=O)N4C)cc2)CC1", "Not satisfied"],
  ["CN1C(=O)c2ccccc2N(C)c2nc(Nc3ccc(N4CCC(O)CC4)cc3)ncc21", "Satisfied"]
]}

Identify whether the compound COc1cc(N2CCN(C)CC2)ccc1Nc1ncc2c(n1)N(C)c1ccccc1N(C)C2=O records kinase still bound, per cent of control below 80%. Not satisfied

Problem: For the compound COc1cc(N2CCN(C)CC2)ccc1Nc1ncc2c(n1)Nc1ccccc1NC2=O , is kinase still bound, per cent of control under 80%? Not satisfied

Does CS(=O)(=O)Nc1ccc(-c2cncc(/C=C3\SC(=N)NC3=O)c2)cc1 have kinase still bound, per cent of control strictly under 80%? Satisfied

Lab note: kinase still bound, per cent of control threshold 80%. Does this compound come in strictly under it? CN1C(=O)c2ccccc2N(C)c2nc(NS(=O)(=O)c3ccc(N)cc3)ncc21 Not satisfied

hey, is kinase still bound, per cent of control for O=C1NC(=O)/C(=C/c2c[nH]c(=O)c(-c3ccc(N4CCNCC4)nc3)c2)S1 lower than 80% or not? Satisfied

Is the reported kinase still bound, per cent of control for COc1cc(N2CCC(O)CC2)ccc1Nc1ncc2c(n1)N1CCc3cccc(c31)C(=O)N2C strictly below 80%? Satisfied

* * *

In this section, each of the compounds is paired with its reported kinase still bound, per cent of control.
- assayed_target: ROS1 (human) (UniProt P08922)
- Sequence (P08922 whole entry, looked up): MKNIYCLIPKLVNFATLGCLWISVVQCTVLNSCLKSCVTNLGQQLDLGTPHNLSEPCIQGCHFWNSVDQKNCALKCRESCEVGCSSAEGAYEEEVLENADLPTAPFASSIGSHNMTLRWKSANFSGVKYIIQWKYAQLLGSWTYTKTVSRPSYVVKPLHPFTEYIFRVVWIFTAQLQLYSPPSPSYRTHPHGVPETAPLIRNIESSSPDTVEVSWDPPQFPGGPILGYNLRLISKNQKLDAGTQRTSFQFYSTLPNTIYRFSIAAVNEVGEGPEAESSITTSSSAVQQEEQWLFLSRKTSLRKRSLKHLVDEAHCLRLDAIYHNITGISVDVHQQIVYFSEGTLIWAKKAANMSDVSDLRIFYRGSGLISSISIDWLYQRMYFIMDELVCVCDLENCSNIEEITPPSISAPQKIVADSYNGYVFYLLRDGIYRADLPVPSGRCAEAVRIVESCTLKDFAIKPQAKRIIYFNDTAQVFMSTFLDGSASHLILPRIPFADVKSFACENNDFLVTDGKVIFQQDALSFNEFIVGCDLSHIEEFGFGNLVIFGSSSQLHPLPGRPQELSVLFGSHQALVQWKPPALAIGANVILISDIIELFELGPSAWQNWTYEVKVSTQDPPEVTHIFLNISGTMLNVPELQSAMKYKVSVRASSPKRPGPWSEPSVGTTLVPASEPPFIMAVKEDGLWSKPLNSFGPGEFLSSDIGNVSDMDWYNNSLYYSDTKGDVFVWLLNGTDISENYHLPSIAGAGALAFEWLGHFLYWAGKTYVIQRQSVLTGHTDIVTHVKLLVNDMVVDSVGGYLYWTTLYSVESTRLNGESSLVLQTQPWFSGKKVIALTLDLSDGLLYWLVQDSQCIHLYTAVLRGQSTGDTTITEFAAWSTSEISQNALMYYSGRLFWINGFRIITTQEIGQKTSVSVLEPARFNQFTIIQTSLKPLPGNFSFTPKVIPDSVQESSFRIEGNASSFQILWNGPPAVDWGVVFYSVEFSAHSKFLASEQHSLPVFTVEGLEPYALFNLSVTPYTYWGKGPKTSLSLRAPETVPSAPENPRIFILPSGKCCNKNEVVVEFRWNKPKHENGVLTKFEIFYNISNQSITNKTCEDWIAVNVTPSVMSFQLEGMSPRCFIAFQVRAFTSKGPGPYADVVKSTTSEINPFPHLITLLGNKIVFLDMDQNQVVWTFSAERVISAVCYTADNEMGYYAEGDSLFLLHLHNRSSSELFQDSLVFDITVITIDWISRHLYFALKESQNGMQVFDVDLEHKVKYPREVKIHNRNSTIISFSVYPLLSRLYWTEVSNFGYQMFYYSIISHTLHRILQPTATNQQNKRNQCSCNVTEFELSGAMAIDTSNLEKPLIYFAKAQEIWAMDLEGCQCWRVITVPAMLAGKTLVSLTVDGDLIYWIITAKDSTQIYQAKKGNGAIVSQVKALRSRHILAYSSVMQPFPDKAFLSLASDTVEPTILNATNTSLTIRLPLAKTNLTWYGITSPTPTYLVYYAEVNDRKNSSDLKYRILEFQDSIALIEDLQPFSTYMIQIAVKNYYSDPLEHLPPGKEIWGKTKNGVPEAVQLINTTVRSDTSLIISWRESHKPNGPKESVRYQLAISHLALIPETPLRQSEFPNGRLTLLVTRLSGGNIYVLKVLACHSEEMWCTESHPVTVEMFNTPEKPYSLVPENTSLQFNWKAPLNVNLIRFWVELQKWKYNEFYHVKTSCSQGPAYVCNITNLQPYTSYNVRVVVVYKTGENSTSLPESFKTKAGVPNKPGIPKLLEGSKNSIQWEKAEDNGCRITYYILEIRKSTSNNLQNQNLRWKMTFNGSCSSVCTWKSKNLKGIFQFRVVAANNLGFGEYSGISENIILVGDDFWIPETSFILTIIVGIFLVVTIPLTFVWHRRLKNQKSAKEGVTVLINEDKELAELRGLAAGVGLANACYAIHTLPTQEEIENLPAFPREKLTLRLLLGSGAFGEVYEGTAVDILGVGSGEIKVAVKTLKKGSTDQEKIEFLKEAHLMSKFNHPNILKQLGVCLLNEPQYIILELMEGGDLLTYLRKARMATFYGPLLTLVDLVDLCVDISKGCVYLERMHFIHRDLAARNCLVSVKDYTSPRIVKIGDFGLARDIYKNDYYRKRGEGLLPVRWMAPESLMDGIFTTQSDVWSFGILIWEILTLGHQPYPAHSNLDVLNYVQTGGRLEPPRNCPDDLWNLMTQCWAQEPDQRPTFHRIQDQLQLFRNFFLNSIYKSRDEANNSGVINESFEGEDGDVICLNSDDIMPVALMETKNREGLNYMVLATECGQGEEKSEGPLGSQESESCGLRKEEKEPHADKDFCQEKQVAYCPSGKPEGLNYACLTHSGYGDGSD
- procedure_details: KINOMEscan competition binding
- study_conditions: compound 10.0 µM
# output: bare number, implied unit %

{"columns": ["chemical_smiles", "kinase still bound, per cent of control, %"],
 "data": [
  ["COc1cc(N2CCN(C)CC2)ccc1Nc1ncc2c(n1)N(C)c1ccccc1C(=O)N2", 17],
  ["COc1cc(N2CCN(C)CC2)ccc1Nc1ncc2c(n1)N(C)c1ccccc1N(C)C2=O", 21],
  ["COc1cc(N2CCN(C)CC2)ccc1Nc1ncc2c(n1)N(C(C)C)c1ccccc1C(=O)N2C", 9.2],
  ["CN1C(=O)c2ccccc2N(C)c2nc(Nc3ccc(N4CCC(O)CC4)cc3)ncc21", 35],
  ["COc1cc(N2CCN(C)CC2)ccc1Nc1ncc2c(n1)Nc1ccccc1NC2=O", 82]
]}

Switching to the query record.
For the compound O=C1NC(=O)/C(=C/c2c[nH]c(=O)c(-c3ccc(N4CCNCC4)nc3)c2)S1 , what kinase still bound, per cent of control is on record? 100
